assay: GLP 28-day oral toxicity and toxicokinetics study; format: in vivo, Sprague Dawley rats; details: male, Sprague Dawley, rat, in vivo, po, 300 mg/kg/day, t1/2
Property measured: half-life (h)

>>> reported_result("NS(=O)(=O)c1ccc(Nc2ncc3cc4n(c3n2)C2(CCCCC2)C(=O)NN4)cc1 [Compound I]")
5.54

###

test: GLP 28-day oral toxicity and toxicokinetics study; format: in vivo, Beagle dogs; details: female, Beagle, dog, in vivo, po, 20 mg/kg/day, Tmax
Property measured: Tmax (h)

>>> reported_result("NS(=O)(=O)c1ccc(Nc2ncc3cc4n(c3n2)C2(CCCCC2)C(=O)NN4)cc1")
8.8

###

test: GLP 28-day oral toxicity and toxicokinetics study; format: in vivo, Sprague Dawley rats; conditions: female, Sprague Dawley, rat, in vivo, po, 1000 mg/kg/day, AUC0-24
Property measured: AUC(0-t) (ng·h/mL)

>>> reported_result("NS(=O)(=O)c1ccc(Nc2ncc3cc4n(c3n2)C2(CCCCC2)C(=O)NN4)cc1")
12600

###

Target: CYP1A2 (Homo sapiens, UniProt P05177)
Construct: human liver microsomes were incubated in the appropriate isoform-specific probe substrate
Sequence (P05177 1-516): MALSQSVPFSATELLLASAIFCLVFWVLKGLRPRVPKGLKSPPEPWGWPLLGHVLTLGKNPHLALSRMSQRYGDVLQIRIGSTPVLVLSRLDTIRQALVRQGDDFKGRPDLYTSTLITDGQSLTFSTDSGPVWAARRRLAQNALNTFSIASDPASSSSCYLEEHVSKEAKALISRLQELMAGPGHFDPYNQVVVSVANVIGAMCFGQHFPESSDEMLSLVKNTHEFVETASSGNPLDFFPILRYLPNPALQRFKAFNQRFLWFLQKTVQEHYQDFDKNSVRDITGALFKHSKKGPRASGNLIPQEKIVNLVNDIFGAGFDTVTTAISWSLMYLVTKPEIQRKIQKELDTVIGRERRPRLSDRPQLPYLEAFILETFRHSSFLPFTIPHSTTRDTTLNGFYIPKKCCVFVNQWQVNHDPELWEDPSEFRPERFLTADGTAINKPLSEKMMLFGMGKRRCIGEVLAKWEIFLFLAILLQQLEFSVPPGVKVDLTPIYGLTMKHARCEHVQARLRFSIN
Test: CYP inhibition in human liver microsomes
Settings: CYP1A2, substrate Tacrine, human liver microsomes
Protocol: The final DMSO content in the reaction mixtures was ≤0.2%. A selective inhibitor of each isoform was also screened as a positive control. Incubations were terminated by the addition of methanol. The quenched samples were incubated at 4° C. for 10 minutes and filtered by centrifugation for 1 minute at 500 rcf. The supernatants were removed, and the probe substrate metabolites were analyzed by LC-MS/MS. […]
Property measured: IC50

>>> reported_result("NS(=O)(=O)c1ccc(Nc2ncc3cc4n(c3n2)C2(CCCCC2)C(=O)NN4)cc1")
"> 25 µM"

###

assay: GLP 28-day oral toxicity and toxicokinetics study; format: in vivo, Beagle dogs; conditions: male, Beagle, dog, in vivo, po, 500 mg/kg/day, AUC0-24
Property measured: AUC(0-t) (ng·h/mL)

>>> reported_result("NS(=O)(=O)c1ccc(Nc2ncc3cc4n(c3n2)C2(CCCCC2)C(=O)NN4)cc1 [Compound I]")
13300

###

target: human OCT2 (Homo sapiens, UniProt O15244); construct: expressed in transfected cells; host or cells: HEK293; assay: SLC transporter inhibition in HEK293 cells; assay type: in vitro ADME; settings: OCT2, HEK293 cells; estimated; read-out: IC50
Sequence (O15244 whole entry): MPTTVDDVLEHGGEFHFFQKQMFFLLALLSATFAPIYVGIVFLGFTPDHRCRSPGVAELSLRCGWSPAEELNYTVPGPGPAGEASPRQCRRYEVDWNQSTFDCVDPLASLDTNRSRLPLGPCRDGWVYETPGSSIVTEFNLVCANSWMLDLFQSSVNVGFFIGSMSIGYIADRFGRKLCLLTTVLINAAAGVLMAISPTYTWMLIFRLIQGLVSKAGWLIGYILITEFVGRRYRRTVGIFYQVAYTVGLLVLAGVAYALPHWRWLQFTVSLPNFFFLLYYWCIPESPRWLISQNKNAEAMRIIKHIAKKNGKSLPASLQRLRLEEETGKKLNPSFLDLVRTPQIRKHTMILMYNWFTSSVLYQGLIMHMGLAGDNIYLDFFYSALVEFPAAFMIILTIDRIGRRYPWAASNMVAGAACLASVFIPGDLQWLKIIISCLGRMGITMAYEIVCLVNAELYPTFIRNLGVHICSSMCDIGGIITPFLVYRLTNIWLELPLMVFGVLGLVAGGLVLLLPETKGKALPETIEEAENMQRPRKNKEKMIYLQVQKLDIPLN
pIC50: −log10 of the molar value.
Property measured: pIC50

>>> reported_result("NS(=O)(=O)c1ccc(Nc2ncc3cc4n(c3n2)C2(CCCCC2)C(=O)NN4)cc1 [Compound I]")
4.77

The measured values listed here are drawn from patent US20250199015A1.
